- assay_comment: Protective index (PI),anticonvulsant activity, ratio of TD50/ED50 value in scMet test
- Type: ADME, organism-based
- applied_conditions: mouse, in vivo
Classify by selectivity ratio. Ranges: Low (below 3), Mid (3 to below 5), High (5 or more)

Examples from the recorded data:
molecule: Fc1ccc(N2N=NCC2c2ccncc2)cc1 (centres undefined)
cat: Low

molecule: Clc1ccc(-n2nncc2-c2cccnc2)cc1
cat: High

molecule: c1ccc(-n2nncc2-c2cccnc2)cc1
cat: Mid

Ask: Which category does the recorded selectivity ratio put Fc1ccc(-n2nncc2-c2cccnc2)cc1 in?
Reply: Mid

Ask: Which category does the recorded selectivity ratio put Clc1ccc(-n2nncc2-c2ccccn2)cc1 in?
Reply: Mid

Ask: Which category does the recorded selectivity ratio put FC(F)(F)c1ccc(-n2nncc2-c2cccnc2)cc1 in?
Reply: Mid

Ask: Which category does the recorded selectivity ratio put Fc1ccc(-n2nncc2-c2ccccn2)cc1F in?
Reply: Low

* * *

selectivity ratio values by entry
- assay_comment: Protective index (PI), anticonvulsant activity, ratio of TD50/ED50 value in maximal electroconvulsive shock seizure (MES) test
- Format: ADME, organism-based
- applied_conditions: mouse, in vivo
Enter the number alone.

molecule: Fc1ccc(-n2nncc2-c2ccccn2)cc1F
selectivity ratio: 3.1
//
molecule: c1ccc(-n2nncc2-c2cccnc2)cc1
selectivity ratio: 1.7
//
molecule: Brc1ccc(-n2nncc2-c2cccnc2)cc1
selectivity ratio: 5.7

Ask: Which selectivity ratio value is on record for c1ccc(N2N=NCC2c2ccncc2)cc1 (centres undefined) ?
Reply: 3.6

Ask: Which selectivity ratio value is on record for Clc1cccc(-n2nncc2-c2ccncc2)c1 ?
Reply: 1.8

Ask: Which selectivity ratio value is on record for Brc1ccc(-n2nncc2-c2ccccn2)cc1 ?
Reply: 3.9

* * *

- assay_comment: Protective index (PI),anticonvulsant activity, ratio of TD50/ED50 value in scMet test
- Assay type: ADME, organism-based
- applied_conditions: mouse, in vivo
Classify by selectivity ratio. Ranges: range 1 = under 2, range 2 = from 2 up to 5, range 3 = 5 and over

compound: Brc1ccc(-n2nncc2-c2ccccn2)cc1
cat: range 2

Ask: Which category does the recorded selectivity ratio put c1ccc(N2N=NCC2c2ccncc2)cc1 (configuration not stated) in?
Reply: range 3

Ask: Which category does the recorded selectivity ratio put c1ccc(-n2nncc2-c2ccncc2)cc1 in?
Reply: range 2

* * *

selectivity ratio values by entry
- assay_comment: Protective index (PI), anticonvulsant activity, ratio of TD50/ED50 value in maximal electroconvulsive shock seizure (MES) test
- Assay type: ADME, organism-based
- applied_conditions: mouse, in vivo
Enter the number alone.

compound: Fc1ccc(-n2nncc2-c2cccnc2)cc1
measurement_type: selectivity ratio
assay_result: 2.5
//
compound: Clc1ccc(-n2nncc2-c2ccccn2)cc1
measurement_type: selectivity ratio
assay_result: 2.5
//
compound: Fc1ccc(N2N=NCC2c2ccncc2)cc1 (stereo not drawn)
measurement_type: selectivity ratio
assay_result: 2.5
//
compound: Clc1ccc(-n2nncc2-c2ccccc2)cc1
measurement_type: selectivity ratio
assay_result: 2
//
compound: Clc1ccc(-n2nncc2-c2cccnc2)cc1
measurement_type: selectivity ratio
assay_result: 3.7

Ask: Which selectivity ratio value is on record for c1ccc(-n2nncc2-c2ccncc2)cc1 ?
Reply: 2

Ask: Which selectivity ratio value is on record for c1ccc(-n2nncc2-c2ccccn2)cc1 ?
Reply: 2.1

Ask: Which selectivity ratio value is on record for Fc1ccc(-n2nncc2-c2ccncc2)cc1 ?
Reply: 2

Ask: Which selectivity ratio value is on record for FC(F)(F)c1cccc(-n2nncc2-c2ccncc2)c1 ?
Reply: 0.99

Ask: Which selectivity ratio value is on record for FC(F)(F)c1cccc(N2N=NCC2c2ccncc2)c1 (stereo not drawn) ?
Reply: 2.63

Ask: Which selectivity ratio value is on record for FC(F)(F)c1ccc(-n2nncc2-c2cccnc2)cc1 ?
Reply: 4.1

Ask: Which selectivity ratio value is on record for Clc1ccc(N2N=NCC2c2ccncc2)cc1 (stereo not drawn) ?
Reply: 4.4

* * *

- assay_comment: Protective index (PI),anticonvulsant activity, ratio of TD50/ED50 value in scMet test
- Type: ADME, organism-based
- applied_conditions: mouse, in vivo
measurement_type: selectivity ratio
Enter the number alone.

Ask: Which selectivity ratio value is on record for Clc1ccc(-n2nncc2-c2ccccc2)cc1 ?
Reply: 4.9

Ask: Which selectivity ratio value is on record for Brc1ccc(-n2nncc2-c2cccnc2)cc1 ?
Reply: 12.2

* * *

- assay_comment: Protective index (PI),anticonvulsant activity, ratio of TD50/ED50 value in scMet test
- Format: ADME, organism-based
- applied_conditions: mouse, in vivo
selectivity ratio values by entry
Enter the number alone.

Illustrative cases are given below, each with its answer.
compound: Fc1ccc(-n2nncc2-c2ccncc2)cc1
selectivity ratio: 1.5
--
compound: c1ccc(-n2nncc2-c2ccccn2)cc1
selectivity ratio: 3.4
--
compound: FC(F)(F)c1cccc(-n2nncc2-c2ccncc2)c1
selectivity ratio: 1.52
--
compound: Clc1ccc(N2N=NCC2c2ccncc2)cc1 (configuration not stated)
selectivity ratio: 26
--
compound: FC(F)(F)c1cccc(N2N=NCC2c2ccncc2)c1 (configuration not stated)
selectivity ratio: 2.69

Next up:
Ask: Which selectivity ratio value is on record for Clc1cccc(-n2nncc2-c2ccncc2)c1 ?
Reply: 2.4
